tested on: Escherichia coli; assay: MIC determination by agar dilution (Mueller Hinton Agar); format: cell-based; conditions: 20 h, Culture Number 9379, 35° C., read-out: Minimum Inhibitory Concentration
ATTRIBUTE MEASURED: MIC (µg/mL)
One number for each entry, in µg/mL.

Look up MIC for the entries below, preserving their order.
1. C[C@H]1[C@H](NS(=O)(=O)NC(=O)N2C[C@H](NC(=O)/C(=N\OC(C)(C)C(=O)O)c3csc(N)n3)C2=O)C(=O)NN1C(=O)c1cc(=O)c(O)c[nH]1
2. C[C@H]1[C@@H](NS(=O)(=O)NC(=O)N2C[C@H](NC(=O)/C(=N\OC(C)(C)C(=O)O)c3csc(N)n3)C2=O)C(=O)NN1C(=O)c1cc(=O)c(O)c[nH]1
3. CC(C)(O/N=C(\C(=O)N[C@H]1CN(C(=O)NS(=O)(=O)N[C@@H]2CN(C(=O)c3cc(=O)c(O)c[nH]3)NC2=O)C1=O)c1csc(N)n1)C(=O)O

[0.03, 0.03, 0.015]

---

tested on: Escherichia coli; assay: MIC determination by agar dilution (Mueller Hinton Agar); assay type: cell-based; details: 20 h, Culture Number 9380, 35° C., read-out: Minimum Inhibitory Concentration
ATTRIBUTE MEASURED: MIC

Observe how each entry below is paired with its result.
In [3]: df
Out[3]:
                           molecular_string  recorded_result
0  CC(C)(O/N=C(\C(=O)N[C@H]1CN(C(=O)NS(=O)(=O)N[C@H]2CN(C(=O)c3cc(=O)c(O)c[nH]3)NC2=O)C1=O)c1csc(N)n1)C(=O)O        < 8 ng/mL
1  CC(C)(O/N=C(\C(=O)N[C@H]1CN(C(=O)NS(=O)(=O)N[C@@H]2CN(C(=O)c3cc(=O)c(O)c[nH]3)NC2=O)C1=O)c1csc(N)n1)C(=O)O        < 8 ng/mL
2  C[C@H]1[C@H](NS(=O)(=O)NC(=O)N2C[C@H](NC(=O)/C(=N\OC(C)(C)C(=O)O)c3csc(N)n3)C2=O)C(=O)NN1C(=O)c1cc(=O)c(O)c[nH]1        < 8 ng/mL

Next, consider the following compound.
Documented MIC of C[C@H]1[C@@H](NS(=O)(=O)NC(=O)N2C[C@H](NC(=O)/C(=N\OC(C)(C)C(=O)O)c3csc(N)n3)C2=O)C(=O)NN1C(=O)c1cc(=O)c(O)c[nH]1 : 15 ng/mL

---

test system: Proteus vulgaris
Provide the reported MIC of each item.
Give bare numbers, in µg/mL.

Observe how each entry below is paired with its result.
MOLECULE	UNITS SYMBOL	MIC
C[C@H]1[C@@H](NS(=O)(=O)NC(=O)N2C[C@H](NC(=O)/C(=N\OC(C)(C)C(=O)O)c3csc(N)n3)C2=O)C(=O)NN1C(=O)c1cc(=O)c(O)c[nH]1 [60(p)]	µg/mL	0.06
CC(C)(O/N=C(\C(=O)N[C@H]1CN(C(=O)NS(=O)(=O)N[C@H]2CN(C(=O)c3cc(=O)c(O)c[nH]3)NC2=O)C1=O)c1csc(N)n1)C(=O)O [60(b)]	µg/mL	0.06
CC(C)(O/N=C(\C(=O)N[C@H]1CN(C(=O)NS(=O)(=O)N[C@@H]2CN(C(=O)c3cc(=O)c(O)c[nH]3)NC2=O)C1=O)c1csc(N)n1)C(=O)O [60(d)]	µg/mL	0.06

Next, consider the following molecule.
Documented MIC of C[C@H]1[C@H](NS(=O)(=O)NC(=O)N2C[C@H](NC(=O)/C(=N\OC(C)(C)C(=O)O)c3csc(N)n3)C2=O)C(=O)NN1C(=O)c1cc(=O)c(O)c[nH]1 [60(m)] : 0.06

---

system: Klebsiella oxytoca; assay: MIC determination by agar dilution (Mueller Hinton Agar); format: cell-based; conditions: 20 h, Culture Number 9383, 35° C., read-out: Minimum Inhibitory Concentration
ATTRIBUTE MEASURED: MIC (µg/mL)
Numbers only, in µg/mL.

Observe how each entry below is paired with its result.
MOLECULE	ATTRIBUTE MEASURED	RECORDED RESULT
C[C@H]1[C@H](NS(=O)(=O)NC(=O)N2C[C@H](NC(=O)/C(=N\OC(C)(C)C(=O)O)c3csc(N)n3)C2=O)C(=O)NN1C(=O)c1cc(=O)c(O)c[nH]1 [60(m)]	MIC	0.25
CC(C)(O/N=C(\C(=O)N[C@H]1CN(C(=O)NS(=O)(=O)N[C@@H]2CN(C(=O)c3cc(=O)c(O)c[nH]3)NC2=O)C1=O)c1csc(N)n1)C(=O)O [60(d)]	MIC	0.125
CC(C)(O/N=C(\C(=O)N[C@H]1CN(C(=O)NS(=O)(=O)N[C@H]2CN(C(=O)c3cc(=O)c(O)c[nH]3)NC2=O)C1=O)c1csc(N)n1)C(=O)O [60(b)]	MIC	0.125

Documented MIC of C[C@H]1[C@@H](NS(=O)(=O)NC(=O)N2C[C@H](NC(=O)/C(=N\OC(C)(C)C(=O)O)c3csc(N)n3)C2=O)C(=O)NN1C(=O)c1cc(=O)c(O)c[nH]1 [60(p)] : 0.125
